test system: Staphylococcus aureus Smith; assay: in vitro antibacterial MIC, agar plate dilution; type: cell-based; details: 18 hours, 35° C.
measured-parameter: MIC (µg/mL)

(A) O=C(O)c1cn(C2CC2)c2cc(N3CCNC(C4CC4)C3)c(F)cc2c1=O (stereo not shown)
(B) O=C(O)c1cn(C2CC2)c2cc(N3CCNC(c4ccco4)C3)c(F)cc2c1=O (stereo not shown)
(C) CCn1cc(C(=O)O)c(=O)c2cc(F)c(N3CCNC(CF)C3)c(F)c21 (single isomer, unassigned; (-)) [Example 64]
Challenge: Rank the listed molecules, smallest MIC first and largest last. // ordering of labels required in reply
Response given: B, A, C
